Procedure summary: Compound was tested for binding affinity against neuronal nitric oxide synthase(nNOS)
Outcome measure: pKi
Please note pKi is a logarithmic value: minus log10 of concentration in mol/L. Answer with that number alone.

# Molecule, pKi
rows = [
    ("C#CCNC(=N)NCCCC(N)C(=O)O (stereo not drawn)", 6.37),
    ("CCNC(=N)NCCCC(N)C(=O)O (stereo not drawn)", 4.80),
]

Please find the next molecule below.
Qu. Suppose we examine the molecule C=CCNC(=N)NCCCC(N)C(C)=O (stereo not drawn) ; what pKi value has been reported?
Ans. 6.70
